The values you see were collected from PubChem BioAssay AID330.

Tested on: P388 leukemia ip, CD2F1 mice, survival T/C
Test: NCI In Vivo Anticancer Drug Screen. Data for tumor model P388 Leukemia (intraperitoneal) in CD2F1 (CDF1) mice
Details: endpoint: median survival time; dose: 200.0 mg/kg/injection; schedule: Q01DX009 (ip); vehicle: Klucel (hydroxypropylcellulose) (HPC); higher = longer survival
Toxic doses and inconclusive results are not listed.
Below, each entry is listed with its recorded T/C.

// worked examples, T/C included
Cc1[nH]nc2c(C/C=C/c3ccccc3)n[nH]c(=O)c12
101 % of control
O=C(CCCCC(=O)NO)NO
105 % of control

QUERY: Entry CC(C)(C)c1cc(C(=O)O)c2soc(=O)c2c1 : reported T/C = ?
RESULT: 111 % of control

QUERY: Same question, CC1Cn2c(nc3sc4c(c3c2=O)CCCC4)S1 (stereo not given) this time
RESULT: 106 % of control

----------
Quick reference for T/C among some molecules
System: P388 leukemia ip, CD2F1 mice, survival T/C
Test: NCI In Vivo Anticancer Drug Screen. Data for tumor model P388 Leukemia (intraperitoneal) in CD2F1 (CDF1) mice
Settings: endpoint: median survival time; dose: 7.5 mg/kg/injection; schedule: Q01DX005 (ip); vehicle: Klucel (hydroxypropylcellulose) (HPC); higher = longer survival
Inconclusive results and toxic doses are left out.

Recorded results for 5 molecules are shown here.
O=C1C(N=Nc2ccc([N+](=O)[O-])cc2)Sc2nc3ccccc3n21 (stereo unspecified)
99 % of control
COC(=O)C1C2CC3c4[nH]c5cc(OC)c(Br)cc5c4CCN3CC2CC(OC(=O)c2cc(OC)c(OC)c(OC)c2)C1OC (stereo unspecified)
94 % of control
CC(=O)C1CCC2=C(C1)C(=O)c1cc3c(-c4ccccc4)oc(-c4ccccc4)c3cc1C2=O (stereo unspecified)
87 % of control
CC(/C=C/c1cccc(C)c1)=N\NC(N)=S
105 % of control
C=C1C(=O)C[C@H]2[C@H]3CC[C@H](C(=O)O)[C@]12CC3(C)C
119 % of control

Here is the next item to consider.
QUERY: Recall the recorded T/C for O=C(O)c1ccccc1.O=C(O)c1ccccc1.O=C(O)c1ccccc1.O=C(O)c1ccccc1.[Cu].[Cu] with P388 leukemia ip, CD2F1 mice, survival T/C and state it.
RESULT: 99 % of control

----------
System: P388 leukemia ip, CD2F1 mice, survival T/C
Assay: NCI In Vivo Anticancer Drug Screen. Data for tumor model P388 Leukemia (intraperitoneal) in CD2F1 (CDF1) mice
Details: endpoint: median survival time; dose: 12.5 mg/kg/injection; schedule: Q01DX009 (ip); vehicle: distilled water + Tween-80
Inconclusive results and toxic doses are left out. Rule for the calls: active = survival T/C of 150% or more; inactive = T/C below 125% in these data.
Pick one and only one: active, inactive

# example entries with known answers
CC(=O)On1nnc2ccccc2c1=O
inactive
COc1cc2ccnc(/C=N\O)c2cc1OC
inactive
CC1(C)N=C(N)N=C(N)N1c1ccc(CCCCc2ccc(S(=O)(=O)F)cc2Cl)c(Cl)c1
active
COc1ccc(/C=C(\C)[N+](=O)[O-])cc1OC
inactive
O=C(CCl)Nc1nncs1
inactive
C[As](C)SC1CCC2(C)C(=CCC3C4CCC(=O)C4(C)CCC32)C1 (configuration not stated)
inactive

Then there is this compound:
QUERY: # outcome recorded in this test, key = Nc1nc(N)nc(CCC(Cl)(Cl)Cl)n1
RESULT: inactive
